Origin of measurements: ChEMBL document CHEMBL5154673

Target: Serine/threonine-protein kinase B-raf (Homo sapiens, UniProt P15056, V600E)
Sequence (P15056 2-766 V600E limits assumed): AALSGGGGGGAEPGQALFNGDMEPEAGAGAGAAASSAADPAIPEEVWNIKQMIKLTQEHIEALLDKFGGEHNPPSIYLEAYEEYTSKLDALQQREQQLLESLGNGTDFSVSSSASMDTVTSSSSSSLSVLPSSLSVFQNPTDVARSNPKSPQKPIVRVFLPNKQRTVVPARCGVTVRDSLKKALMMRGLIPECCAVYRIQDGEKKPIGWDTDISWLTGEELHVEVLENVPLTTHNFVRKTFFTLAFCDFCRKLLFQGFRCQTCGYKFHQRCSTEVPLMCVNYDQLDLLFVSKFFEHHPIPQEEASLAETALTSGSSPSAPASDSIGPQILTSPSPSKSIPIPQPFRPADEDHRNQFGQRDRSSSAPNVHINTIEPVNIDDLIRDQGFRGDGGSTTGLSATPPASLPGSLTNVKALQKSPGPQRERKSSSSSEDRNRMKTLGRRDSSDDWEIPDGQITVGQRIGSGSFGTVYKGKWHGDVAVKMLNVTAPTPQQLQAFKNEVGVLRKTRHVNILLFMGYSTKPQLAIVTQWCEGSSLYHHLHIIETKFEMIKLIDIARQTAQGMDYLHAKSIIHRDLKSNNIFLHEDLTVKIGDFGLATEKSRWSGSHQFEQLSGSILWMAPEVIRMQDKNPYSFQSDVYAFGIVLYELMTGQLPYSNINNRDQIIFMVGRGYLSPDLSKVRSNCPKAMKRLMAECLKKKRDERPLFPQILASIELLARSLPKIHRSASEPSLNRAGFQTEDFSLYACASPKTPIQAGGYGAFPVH
Test: Inhibition of N-terminal His-tagged human recombinant B-Raf V600E mutant (448 to 723 residues) expressed in Escherichia coli BL21 (DE3) by Lanthascreen assay
pIC50: −log10 of the molar value.
Outcome Measure: pIC50

Compound	pIC50
Nc1nccc(-c2sc(C3CCN(C4CC4)CC3)nc2-c2cccc(NS(=O)(=O)c3cc(F)ccc3F)c2F)n1	8.36
Nc1nccc(-c2sc(C3CCN3)nc2-c2cccc(NS(=O)(=O)c3cc(F)ccc3F)c2F)n1 (centres undefined)	8.68

a = Nc1nccc(-c2sc(C3CNCCN3)nc2-c2cccc(NS(=O)(=O)c3cc(F)ccc3F)c2F)n1 (centres undefined)
b = Nc1nccc(-c2sc(C3CCCN3)nc2-c2cccc(NS(=O)(=O)c3cc(F)ccc3F)c2F)n1 (centres undefined)
Pick the one with the larger pIC50: a vs b # reply format: chosen label
b
(b: 8.77, a: 8.23)

###

Below, each of the compounds is paired with its reported pEC50 value.
Molecular target: Nuclear receptor subfamily 1 group I member 2 (Homo sapiens, UniProt O75469)
Sequence (O75469 whole entry): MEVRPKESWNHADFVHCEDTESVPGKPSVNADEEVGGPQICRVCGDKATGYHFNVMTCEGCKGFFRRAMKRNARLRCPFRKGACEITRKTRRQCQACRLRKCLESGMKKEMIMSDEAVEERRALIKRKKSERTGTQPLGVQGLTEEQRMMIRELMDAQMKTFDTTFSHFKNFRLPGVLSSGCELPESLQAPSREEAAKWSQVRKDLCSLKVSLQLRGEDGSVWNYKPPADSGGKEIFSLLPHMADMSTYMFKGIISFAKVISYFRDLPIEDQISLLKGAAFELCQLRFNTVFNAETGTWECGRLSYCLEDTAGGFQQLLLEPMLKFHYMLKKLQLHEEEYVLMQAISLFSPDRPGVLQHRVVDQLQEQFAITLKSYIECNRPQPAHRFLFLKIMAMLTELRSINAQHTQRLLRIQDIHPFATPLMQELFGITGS
Experiment: Transactivation of Gal4-tagged human PXR transfected in human HeLa cells preincubated for 16 hrs followed by luciferin addition and measured after 10 mins by luminescence method
pEC50: −log10 of the molar value.

Compound	Meas Value
CC(=O)Nc1nccc(-c2sc(CCCN)nc2-c2cccc(NS(=O)(=O)c3cc(F)ccc3F)c2F)n1	< 4.52

The record that follows has no pEC50 shown yet.
Specify measured pEC50 for CC(=O)Nc1nccc(-c2sc(C3CCN(C4CC4)CC3)nc2-c2cccc(NS(=O)(=O)c3cc(F)ccc3F)c2F)n1 .
4.97

###

Target: Serine/threonine-protein kinase B-raf (Homo sapiens, UniProt P15056, V600E)
Test: Inhibition of N-terminal His-tagged human recombinant B-Raf V600E mutant (448 to 723 residues) expressed in Escherichia coli BL21 (DE3) by Lanthascreen assay
pIC50: −log10 of the molar value.
Outcome Measure: pIC50

I = CC(C)(C)c1nc(-c2cc(Cl)cc(NS(=O)(=O)c3cc(F)ccc3F)c2F)c(-c2ccnc(N)n2)s1
II = Nc1nccc(-c2sc(C3CCCCN3)nc2-c2cccc(NS(=O)(=O)c3cc(F)ccc3F)c2F)n1 (configuration not stated)
I or II : whose pIC50 is greater? Reply with the label of the item you choose.
II
(II: 8.77, I: 8.44)

A = CC(=O)Nc1nccc(-c2sc(CCCN)nc2-c2cccc(NS(=O)(=O)c3cc(F)ccc3F)c2F)n1
B = Nc1nccc(-c2sc(C3COCCN3)nc2-c2cc(Cl)cc(NS(=O)(=O)c3cc(F)ccc3F)c2F)n1 (configuration not stated)
Return label of the item with the larger pIC50. Candidates: A , B . Use the label to indicate which entry you chose.
B
